I'd appreciate it if you could supply inhibition values for the items below.
molecular target: MAP kinase-interacting serine/threonine-protein kinase 1 (Homo sapiens); experiment: Inhibition of MNK1 (unknown origin) at 0.1 uM using S3 as substrate measured after 60 mins by HTRF assay relative to control
Give the value in % but do not write % after it.

Ask | Return reported inhibition. Input molecule: COc1cc(O)c(C(N)=O)c2oc(C(=O)NC3CCN(Cc4cccc(C(F)(F)F)c4)CC3)c(C)c12
Reply | 20

Ask | Please supply the value of reported inhibition for the item CCN1CCN(C(=O)c2oc3c(C(N)=O)c(O)cc(OC)c3c2C)CC1
Reply | 3

Ask | Write down inhibition measured for item CNC(=O)c1oc2c(C(N)=O)c(O)cc(OC)c2c1C
Reply | 11

Ask | Check the records and state inhibition for COc1cc(O)c(C(N)=O)c2occ(C)c12
Reply | 34

Ask | Please look at this molecule and report its inhibition: COc1cc(O)c(C(N)=O)c2oc(C(=O)Nc3ccc(C)c(C(F)(F)F)c3)c(C)c12
Reply | 12

---

Assign inhibition to each entry below.
target: MAP kinase-interacting serine/threonine-protein kinase 2 (Homo sapiens); assay: Inhibition of MNK2 (unknown origin) at 10 uM using S3 as substrate measured after 60 mins by HTRF assay relative to control
Dear colleague, please return just the value in %, with no unit written.

Ask | Provide inhibition, recorded with MAP kinase-interacting serine/threonine-protein kinase 2 (Homo sapiens), of COc1cc(O)c(C(N)=O)c2oc(C(=O)NCc3ccccc3)c(C)c12
Reply | 28

Ask | Enter inhibition (test system MAP kinase-interacting serine/threonine-protein kinase 2 (Homo sapiens)) for COc1cc(O)c(C(N)=O)c2oc(C(=O)NCC3CCN(Cc4ccc(Cl)c(Cl)c4)CC3)c(C)c12
Reply | 38

Ask | // output inhibition; input Cc1c(C(=O)NC2CCN(Cc3cccc(C(F)(F)F)c3)CC2)oc2cc(O)ccc12 ; system MAP kinase-interacting serine/threonine-protein kinase 2 (Homo sapiens)
Reply | 28

Ask | Please look at COc1cc(O)c(C(N)=O)c2oc(C(=O)NC3CCN(Cc4cccc(C(F)(F)F)c4)CC3)c(C)c12 and tell me its recorded inhibition on MAP kinase-interacting serine/threonine-protein kinase 2 (Homo sapiens).
Reply | 90

Ask | State, for MAP kinase-interacting serine/threonine-protein kinase 2 (Homo sapiens), measured inhibition of the molecule listed here: COc1cc(O)c(C(N)=O)c2oc(C(=O)N3CCN(c4ccc(F)cc4)CC3)c(C)c12
Reply | 10

---

target: MAP kinase-interacting serine/threonine-protein kinase 2 (Homo sapiens, UniProt Q9HBH9); test: Inhibition of MNK2 (unknown origin) at 1 uM using S3 as substrate measured after 60 mins by HTRF assay relative to control
Sequence (Q9HBH9 whole entry, looked up): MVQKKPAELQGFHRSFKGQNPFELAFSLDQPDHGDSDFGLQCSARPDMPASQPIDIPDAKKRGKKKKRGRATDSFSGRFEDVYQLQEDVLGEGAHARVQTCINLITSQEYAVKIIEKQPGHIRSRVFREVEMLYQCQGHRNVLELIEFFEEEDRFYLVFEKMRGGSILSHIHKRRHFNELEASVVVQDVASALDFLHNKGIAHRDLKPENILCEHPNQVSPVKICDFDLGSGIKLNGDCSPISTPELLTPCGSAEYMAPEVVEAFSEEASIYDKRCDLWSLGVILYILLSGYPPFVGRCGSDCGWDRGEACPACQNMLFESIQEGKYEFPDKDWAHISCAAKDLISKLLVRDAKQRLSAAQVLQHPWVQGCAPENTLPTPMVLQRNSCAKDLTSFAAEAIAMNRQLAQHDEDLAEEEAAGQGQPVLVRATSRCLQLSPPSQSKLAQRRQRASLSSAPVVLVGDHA
Label Fulfilled for high-side inhibition (at or above 20%) and Not fulfilled for low-side inhibition (below it).

Ask | Does the compound COc1cc(O)c(C(N)=O)c2oc(C(=O)N3CCN(c4ccccc4)CC3)c(C)c12 have recorded inhibition that is 20% or more?
Reply | Not fulfilled

Ask | Determine whether measured inhibition meets or exceeds 20% for COc1cc(O)c(C(N)=O)c2oc(C(=O)NC3CCN(Cc4ccc(F)cc4)CC3)c(C)c12
Reply | Not fulfilled

Ask | API: above_or_equal(metric=inhibition, cutoff=20%) for item CCOC(=O)c1oc2c(C(N)=O)c(O)cc(OC)c2c1C
Reply | Fulfilled

Ask | Reported inhibition reaches at least 20% for COc1cc(O)c(C(N)=O)c2oc(C(=O)N3CCOCC3)c(C)c12 ?
Reply | Not fulfilled

Ask | Evaluate COc1cc(O)c(C(N)=O)c2oc(C(=O)NCC3CCN(Cc4ccc(F)cc4)CC3)c(C)c12 : inhibition at minimum 20%?
Reply | Fulfilled

Ask | Would you say COc1cc(O)c(C(N)=O)c2oc(C(=O)NC3CCN(Cc4cccc(C(F)(F)F)c4)CC3)c(C)c12 shows inhibition at minimum 20%?
Reply | Fulfilled

Ask | Reported inhibition reaches at least 20% for COc1cc(O)c(C(N)=O)c2oc(C(=O)NC3CCN(Cc4ccc(C(F)(F)F)cc4)CC3)c(C)c12 ?
Reply | Fulfilled

Ask | Is inhibition for COc1cc(O)c(C(N)=O)c2oc(C(=O)NCC3CCN(Cc4cccc(C(F)(F)F)c4)CC3)c(C)c12 at or above 20%?
Reply | Fulfilled

Ask | Could you tell me if the measured inhibition of COc1cc(O)c(C(N)=O)c2oc(C(=O)Nc3ccc(C)c(C(F)(F)F)c3)c(C)c12 reaches 20% or more?
Reply | Fulfilled

Ask | Is it the case that COc1cc(OC)c2c(C)c(C(=O)NC3CCN(Cc4cccc(C(F)(F)F)c4)CC3)oc2c1 has inhibition reaching or exceeding 20%?
Reply | Not fulfilled

Ask | Tell me whether inhibition is at least 20% here: COc1cc(OC)c2c(C)c(C(=O)NC3CCN(Cc4cccc(C(F)(F)F)c4)CC3)oc2c1C(N)=O
Reply | Not fulfilled

Ask | Reported inhibition at or above 20%? COc1cc(O)c(C(N)=O)c2oc(C(=O)NCc3ccccc3)c(C)c12
Reply | Fulfilled

Ask | Tell me whether inhibition is at least 20% here: COc1cc(O)c(C(N)=O)c2oc(C(=O)NC3CCN(Cc4ccncc4)CC3)c(C)c12
Reply | Not fulfilled

Ask | Check this compound for inhibition at or above 20%: COc1cc(O)c(C(N)=O)c2oc(C(=O)NC3CCN(Cc4ccccc4F)CC3)c(C)c12
Reply | Fulfilled

Ask | inhibition >= 20% for COc1cc(O)c(C(N)=O)c2oc(C(=O)NCC3CCN(Cc4ccc(Cl)c(Cl)c4)CC3)c(C)c12 ?
Reply | Fulfilled

Ask | Quick check, inhibition >= 20%? COc1cc(O)c(C(N)=O)c2oc(C(=O)NC3CCN(C(=O)c4ccc(C(F)(F)F)cc4)CC3)c(C)c12
Reply | Fulfilled

Ask | hey, is inhibition for this one >= 20%? COc1cc(O)c(C(N)=O)c2oc(C(=O)NC3CCN(Cc4cccc(Cl)c4Cl)CC3)c(C)c12
Reply | Not fulfilled

Ask | inhibition >= 20% for COc1cc(O)c(C(N)=O)c2oc(C(=O)NCCN(C)C)c(C)c12 ?
Reply | Not fulfilled

Ask | Has COc1cc(O)c(C(N)=O)c2oc(C(=O)Nc3ccccc3)c(C)c12 a recorded inhibition greater than or equal to 20%?
Reply | Not fulfilled
